Molecular target: Mineralocorticoid receptor (Homo sapiens)
Sequence (P08235 whole entry): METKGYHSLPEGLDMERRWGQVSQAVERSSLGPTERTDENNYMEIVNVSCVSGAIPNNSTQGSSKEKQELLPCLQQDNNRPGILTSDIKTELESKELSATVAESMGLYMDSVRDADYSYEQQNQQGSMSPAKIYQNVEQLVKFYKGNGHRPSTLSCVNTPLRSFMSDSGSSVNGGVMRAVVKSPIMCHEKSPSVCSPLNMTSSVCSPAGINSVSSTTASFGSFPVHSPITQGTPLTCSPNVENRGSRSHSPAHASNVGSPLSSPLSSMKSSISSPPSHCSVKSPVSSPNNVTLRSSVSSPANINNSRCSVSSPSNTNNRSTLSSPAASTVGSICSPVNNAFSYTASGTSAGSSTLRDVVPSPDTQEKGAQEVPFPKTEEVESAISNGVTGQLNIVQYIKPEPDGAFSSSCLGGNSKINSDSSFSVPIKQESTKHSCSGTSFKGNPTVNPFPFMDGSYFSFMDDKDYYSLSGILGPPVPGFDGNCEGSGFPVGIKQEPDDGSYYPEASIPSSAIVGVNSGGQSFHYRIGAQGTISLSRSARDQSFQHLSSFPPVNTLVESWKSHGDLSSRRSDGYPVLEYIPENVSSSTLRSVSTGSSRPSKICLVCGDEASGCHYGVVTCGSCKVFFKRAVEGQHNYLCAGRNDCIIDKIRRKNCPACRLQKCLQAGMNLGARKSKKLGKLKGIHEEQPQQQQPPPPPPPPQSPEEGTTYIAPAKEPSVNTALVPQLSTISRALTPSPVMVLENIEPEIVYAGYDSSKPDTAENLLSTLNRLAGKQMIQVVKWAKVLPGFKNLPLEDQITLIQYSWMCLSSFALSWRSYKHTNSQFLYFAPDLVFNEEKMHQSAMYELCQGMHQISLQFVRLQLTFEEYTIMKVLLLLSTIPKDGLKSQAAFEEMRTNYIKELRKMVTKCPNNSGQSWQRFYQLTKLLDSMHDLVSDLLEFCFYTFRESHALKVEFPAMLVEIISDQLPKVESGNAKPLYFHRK
Experiment: Antagonist activity at mineralocorticoid receptor (hMR)
Format: functional
quantity name: pIC50
// pIC50 here means minus log10 of the molar concentration (mol/L)

get_value(item= "CC1=CC(C)(C)Nc2ccc3c(c21)C(=C1SCCCS1)Oc1ccc(F)cc1-3" , readout=pIC50) returns 6.17

----------
Dear all, this message contains pIC50 results, target or system Androgen receptor (Homo sapiens, UniProt P10275).
// pIC50 here means minus log10 of the molar concentration (mol/L)

CC1=CC(C)(C)Nc2ccc3c(c21)/C(=C/Br)Oc1ccc(F)cc1-3 : 6.60

Query molecule follows.
get_value(item= CC(=O)C[C@]1(C(C)=O)CC[C@H]2C3C[C@H](C)C4=CC(=O)CC[C@]4(C)[C@H]3CC[C@@]21C (some centres not stated) , readout=pIC50) returns 8.21

Values were extracted from ChEMBL document CHEMBL1136068.
